- method-notes: refractive index (Na D-line) (dimensionless)
- measurement-parameters: 293.15 K; 101.33 kPa; Liquid; Standard Abbe refractometry
For each record, write down the corresponding refractive index.
One number for each entry.

Below are worked cases with known answers.
Form field refractive index, entry CCC(C)OC(C)=O (centres undefined) [1-methylpropyl ethanoate] : 1.3886

Form field refractive index, entry COC(C)=O [methyl ethanoate] : 1.3614

Form field refractive index, entry Cc1ccc(C)cc1 [1,4-dimethylbenzene] : 1.4952

Let us examine a further case.
Form field refractive index, entry CC(=O)O [acetic acid] : 1.3718
